Tested on: COLO 205
procedure-details: NCI tumour cell line growth inhibition, 48 h
The source made the active and inactive calls. No stated cut-off is given here; in the data, active = GI50 up to about 1.1 µM and inactive = higher.
Classes used: active, inactive

>>> df
                                   molecule  assigned_label
0               C#CCOC(=O)c1ccc(OC(C)=O)cc1        inactive
1  CC1C(=O)C(C)C(c2ccccc2)N(N=O)C1c1ccccc1 (stereo unspecified)        inactive
2  O=S(=O)(O)C1CCC(O)C2NCCCC21 (stereo unspecified)        inactive
3              CN1C(NN)=NS(=O)(=O)c2ccccc21        inactive
4  c1ccc2c(NCCCCCCNc3c4ccccc4nc4ccccc34)c3ccccc3nc2c1          active
5         CNS(=O)(=O)NNS(=O)(=O)c1ccc(F)cc1        inactive

###

Tested on: UACC-62
procedure-details: NCI tumour cell line growth inhibition, 48 h
The source made the active and inactive calls. No stated cut-off is given here; in the data, active = GI50 up to about 1.1 µM and inactive = higher.
Classes used: active, inactive

>>> df
                                    molecule  assigned_label
 0  O=c1c(C(c2ccc([N+](=O)[O-])cc2)c2c(O)c3ccccc3n(-c3ccccc3)c2=O)c(O)c2ccccc2n1-c1ccccc1        inactive
 1  CC(C)(C)OC(=O)N1Cc2cc(O)ccc2C[C@H]1C(=O)O        inactive
 2  CC1CN=C(NCc2ccccc2)S1 (configuration not stated)        inactive
 3  O=C(Nc1ccccc1)c1ccc(Cl)c([N+](=O)[O-])c1        inactive
 4                  CCC1(CC)SCc2nc3ccccc3n21        inactive
 5  c1ccc2c(NCCCCCCNc3c4ccccc4nc4ccccc34)c3ccccc3nc2c1          active
 6  COc1c(C=O)c2c(c(OC)c1OC)-c1ccc(OC)c(=O)cc1[C@@H](NC(C)=O)CC2          active
 7             O=C(NC1CCCCC1)c1cc2ccccc2cc1O        inactive
 8             COc1c2ccccc2c(OC)c2nc(C)ccc12        inactive
 9  CCOC(=O)c1ccc(NC(NC(=O)CC)(C(F)(F)F)C(F)(F)F)cc1        inactive
10            CCCCOC(=O)CN1C(=O)c2ccccc2C1=O        inactive
11         O=C(CCc1ccccc1)NS(=O)(=O)c1ccccc1        inactive
12  O=C1c2ccccc2C(=O)c2c(OCC3CO3)ccc(OCC3CO3)c21 (configuration not stated)        inactive
13  COc1ccc(-c2cc(=O)c3c(OC)c(OC)c(OC)c(OC)c3o2)cc1 [TANGERETIN]        inactive
14  O=C(CC(=O)N(C(=O)c1ccccc1)c1ccc(Cl)cc1)N/N=C\c1cc(/N=N/c2ccccc2Cl)ccc1O        inactive
15  CC(C)(C)NCC(COc1ccc([N+](=O)[O-])cc1)OP(c1ccccc1)c1ccccc1 (configuration not stated)        inactive
16  COc1ccc(N2C(=O)C3c4[nH]c5cc(Cl)ccc5c4C4CCC(C(C)(C)C)CC4C3C2=O)cc1 (configuration not stated)        inactive
17  O=C(c1ccc(Cl)cc1)c1ccc(OCCCCCCCCCCOc2ccc(C(=O)c3ccc(Cl)cc3)cc2)cc1        inactive
18  CC1C=CC(C)C2(O)C(=O)NC(O)C12 (configuration not stated)        inactive
19  Nc1cc(N)c(/N=N/c2cccc3c(S(=O)(=O)O)cccc23)cc1/N=N/c1cc([N+](=O)[O-])ccc1O        inactive
20     CN(C)CCNC(=O)c1cccc2nc3c(Cl)cccc3nc12        inactive
21           O=C1c2ccccc2C(=O)N1CCCSc1ccccc1        inactive
